Just for reference, ChEMBL document CHEMBL5724914 is where these values come from.

test_parameters: human gut metagenome, 24 h, 2 µM; note: call rule not given here
Where a SMILES comes first, the peptide text is derived from it. [ ]: non-standard residue; d: D form. pGlu = O=C1CC[C@@H](C(=O)O)N1; Thz = O=C(O)[C@@H]1CSCN1
recorded_metric: Bacterial Biotransformation

// below: answered compounds
compound | Bacterial Biotransformation
CCN(CC)C(C)CN1c2ccccc2Sc2ccccc21 (configuration not stated) [ETHOPROPAZINE] | Compound metabolized
O=C1CC[C@@H](C(=O)N2CSC[C@H]2C(=O)O)N1 [PIDOTIMOD] ([pGlu]-[Thz]-OH) | Compound NOT metabolized
O=C1NCC2(CCN(CCc3ccccc3)CC2)O1 [FENSPIRIDE] | Compound NOT metabolized
CCN(CC)CCOCCOC(=O)C1(c2ccccc2)CCCC1.O=C(O)CC(O)(CC(=O)O)C(=O)O [CARBETAPENTANE CITRATE] | Compound metabolized
COCCc1ccc(OCC(O)CNC(C)C)cc1.COCCc1ccc(OCC(O)CNC(C)C)cc1.O=C(O)C(O)C(O)C(=O)O (configuration not stated) [METOPROLOL TARTRATE] | Compound NOT metabolized
Cc1ccc(-c2nc3ccc(C)cn3c2CC(=O)N(C)C)cc1 [ZOLPIDEM] | Compound NOT metabolized
Fc1ccc([C@@H]2CCNC[C@H]2COc2ccc3c(c2)OCO3)cc1 [PAROXETINE] | Compound NOT metabolized
CN1CCN(C(=O)O[C@H]2c3nccnc3C(=O)N2c2ccc(Cl)cn2)CC1 [ESZOPICLONE] | Compound NOT metabolized
CCCC(=O)Nc1ccc(OCC(O)CNC(C)C)c(C(C)=O)c1 (configuration not stated) [ACEBUTOLOL] | Compound metabolized
CCCCC(=O)N(Cc1ccc(-c2ccccc2-c2nnn[nH]2)cc1)[C@H](C(=O)O)C(C)C | Compound metabolized

GET /values?readout=Bacterial Biotransformation&item= C[C@@H]1C[C@H]2[C@@H]3CCC4=CC(=O)C=C[C@]4(C)[C@@]3(F)[C@@H](O)C[C@]2(C)[C@@]1(O)C(=O)CO [DEXAMETHASONE] Compound NOT metabolized

GET /values?readout=Bacterial Biotransformation&item= CS(=O)(=O)O.O.O.O.O=C1Cc2cc(CCN3CCN(c4nsc5ccccc45)CC3)c(Cl)cc2N1 [ZIPRASIDONE MESYLATE] Compound metabolized

GET /values?readout=Bacterial Biotransformation&item= c1ccc([C@H]2CN3CCSC3=N2)cc1 [LEVAMISOLE] Compound metabolized

GET /values?readout=Bacterial Biotransformation&item= COc1c2occc2cc2ccc(=O)oc12 [METHOXSALEN] Compound metabolized

GET /values?readout=Bacterial Biotransformation&item= CC(O)(CS(=O)(=O)c1ccc(F)cc1)C(=O)Nc1ccc(C#N)c(C(F)(F)F)c1 (configuration not stated) [BICALUTAMIDE] Compound NOT metabolized

GET /values?readout=Bacterial Biotransformation&item= O=C(O)COCCN1CCN(C(c2ccccc2)c2ccc(Cl)cc2)CC1 (configuration not stated) [CETIRIZINE] Compound metabolized

GET /values?readout=Bacterial Biotransformation&item= CN(C)CC(c1ccc(O)cc1)C1(O)CCCCC1.O=C(O)CCC(=O)O (configuration not stated) [DESVENLAFAXINE SUCCINATE] Compound NOT metabolized

====

experimental_details: The drug is tested on Z-011 corresponding to mouse gut metagenome with ENA study accession number: PRJEB37062 and ENA sample accession number: ERS12561811 for biotransformation under anaerobic condition. The drug concentrations were measured over 9 timepoints collected between 0 and 24 hours of incubation by liquid-chromatography-coupled mass spectrometry (LC–MS)
test_parameters: 2 µM
recorded_metric: Bacterial Biotransformation

// below: answered compounds
compound | Bacterial Biotransformation
CC(=O)OCC(=O)[C@@]1(O)[C@@H](C)C[C@H]2[C@@H]3CCC4=CC(=O)C=C[C@]4(C)[C@@]3(F)[C@@H](O)C[C@@]21C [BETAMETHASONE ACETATE] | Compound metabolized
NC12CC3CC(CC(C3)C1)C2 [AMANTADINE] | Compound NOT metabolized
O=C(O)CCc1nc(-c2ccccc2)c(-c2ccccc2)o1 [OXAPROZIN] | Compound NOT metabolized
CCOC(=O)[C@H](CCc1ccccc1)N[C@@H](C)C(=O)N1[C@H](C(=O)O)C[C@H]2CCCC[C@@H]21 [TRANDOLAPRIL] | Compound NOT metabolized

GET /values?readout=Bacterial Biotransformation&item= COc1ccc2c3c1O[C@H]1C[C@@H](O)C=C[C@@]31CCN(C)C2 [GALANTAMINE] Compound NOT metabolized

GET /values?readout=Bacterial Biotransformation&item= CC(C)c1c(C(=O)Nc2ccccc2)c(-c2ccccc2)c(-c2ccc(F)cc2)n1CC[C@@H](O)C[C@@H](O)CC(=O)O [ATORVASTATIN] Compound NOT metabolized
